Just for reference, patent US9617256B2 is where these values come from.

# Tested on: ASAU001 (laboratory strain of S. aureus, ATCC29213)
# experiment: MIC broth microdilution, ASAU001
# Assay type: cell-based
# conditionLabel: Staphylococcus aureus, ATCC29213, read-out: MIC ASAU001
List of MIC values.

compound	MIC
C[C@H](N)[C@H](NC(=O)c1ccc(C#Cc2ccc(CNC3CC3)cc2)cc1)C(=O)NO	> 64 µg/mL

`CN(C)CC(=O)NC[C@H](NC(=O)c1ccc(C#C/C=C/c2ccc(CN3CCOCC3)cc2)cc1)C(=O)NO` has a reported MIC of 16 to 64 µg/mL

Looking up `C[C@@H](O)[C@H](NC(=O)c1ccc(C#CC#Cc2ccc(CNC3CC3)cc2)cc1)C(=O)NO` , I found its MIC recorded as 16 to 64 µg/mL
